- assayTarget: ATP-dependent translocase ABCB1 (Homo sapiens, UniProt P08183)
- Sequence (P08183 whole entry): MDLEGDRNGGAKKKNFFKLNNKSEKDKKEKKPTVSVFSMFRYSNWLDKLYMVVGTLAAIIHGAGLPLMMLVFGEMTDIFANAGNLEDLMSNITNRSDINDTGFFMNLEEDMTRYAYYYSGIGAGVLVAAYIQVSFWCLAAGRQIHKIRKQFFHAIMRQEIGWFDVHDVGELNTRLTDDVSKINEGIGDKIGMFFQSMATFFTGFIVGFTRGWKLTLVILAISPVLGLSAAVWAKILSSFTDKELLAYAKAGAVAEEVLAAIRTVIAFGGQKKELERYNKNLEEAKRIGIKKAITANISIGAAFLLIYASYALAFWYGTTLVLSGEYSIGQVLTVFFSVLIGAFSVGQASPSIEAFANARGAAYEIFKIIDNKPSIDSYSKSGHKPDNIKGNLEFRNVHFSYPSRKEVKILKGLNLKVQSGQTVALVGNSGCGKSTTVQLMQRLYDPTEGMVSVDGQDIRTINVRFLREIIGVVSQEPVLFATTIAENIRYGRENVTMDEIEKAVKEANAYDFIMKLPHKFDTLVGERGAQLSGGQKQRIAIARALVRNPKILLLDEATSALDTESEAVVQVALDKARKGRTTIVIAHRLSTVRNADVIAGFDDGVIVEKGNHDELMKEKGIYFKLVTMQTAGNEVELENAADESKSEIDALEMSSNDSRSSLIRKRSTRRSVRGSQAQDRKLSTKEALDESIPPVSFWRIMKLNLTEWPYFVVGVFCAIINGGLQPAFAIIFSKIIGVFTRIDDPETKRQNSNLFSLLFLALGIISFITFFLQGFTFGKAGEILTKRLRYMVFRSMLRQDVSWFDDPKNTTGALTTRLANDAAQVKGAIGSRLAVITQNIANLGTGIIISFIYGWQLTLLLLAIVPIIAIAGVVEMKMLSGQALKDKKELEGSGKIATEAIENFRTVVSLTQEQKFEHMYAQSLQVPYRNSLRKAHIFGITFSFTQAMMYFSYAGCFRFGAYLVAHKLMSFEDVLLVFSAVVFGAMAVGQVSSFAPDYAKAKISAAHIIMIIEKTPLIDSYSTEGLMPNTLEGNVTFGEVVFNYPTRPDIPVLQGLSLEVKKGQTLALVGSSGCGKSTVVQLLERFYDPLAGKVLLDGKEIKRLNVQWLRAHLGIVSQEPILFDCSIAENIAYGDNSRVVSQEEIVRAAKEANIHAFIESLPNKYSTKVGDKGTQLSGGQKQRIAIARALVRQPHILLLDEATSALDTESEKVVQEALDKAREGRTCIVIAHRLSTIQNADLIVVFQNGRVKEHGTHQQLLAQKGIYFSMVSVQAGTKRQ
- protocolDescription: Inhibition of ABCB1 in human K562/A02 cells assessed as potentiation of adriamycin-mediated cytotoxicity by measuring reduction in ADR IC50 at 5 uM after 48 hrs by MTT assay relative to control
- Format: cell-based
# Lookup of reported fold change (FC) keyed by entry
Answer field: number only, no words.

molecule	assayTarget	fold change (FC)
O=C(c1cccnc1NCc1ccncc1)N1CCC(N2CCCCC2)CC1	ATP-dependent translocase ABCB1 (Homo sapiens, UniProt P08183)	1.2
O=C(NCCc1cccs1)c1cccnc1NCc1ccncc1	ATP-dependent translocase ABCB1 (Homo sapiens, UniProt P08183)	1.37
O=C(NC1CCCc2ccccc21)c1cccnc1NCc1ccncc1 (configuration not stated)	ATP-dependent translocase ABCB1 (Homo sapiens, UniProt P08183)	4.24
COc1ccc(NC(=O)c2cccnc2NCc2ccncc2)cc1Cl	ATP-dependent translocase ABCB1 (Homo sapiens, UniProt P08183)	5.29

Q) // fold change (FC) lookup, key: COc1ccc(C2c3cc(OC)c(OC)cc3CCN2C(=O)c2cccnc2NCc2ccncc2)cc1OC (configuration not stated)
A) 3.44

Q) `O=C(c1cccnc1NCc1ccncc1)N(Cc1ccccc1)Cc1ccccc1` ?
A) 10.14

Q) `O=C(Nc1ccc(-c2ccccc2)cc1)c1cccnc1NCc1ccncc1` ?
A) 12.69

Q) `CC(C)(C)c1ccc(NC(=O)c2cccnc2NCc2ccncc2)cc1` ?
A) 4.27

Q) `O=C(Nc1ccc(N2CCOCC2)cc1)c1cccnc1NCc1ccncc1` ?
A) 18.8

Q) `COc1cc2c(cc1OC)CN(C(=O)c1cccnc1NCc1ccncc1)CC2` ?
A) 17.97

Q) `O=C(Nc1ccc(N2CCCCC2)cc1)c1cccnc1NCc1ccncc1` ?
A) 5.21

Q) `O=C(c1ccccc1)c1ccccc1NC(=O)c1cccnc1NCc1ccncc1` ?
A) 1.28

Q) `O=C(Nc1ccc(OC(F)(F)F)cc1)c1cccnc1NCc1ccncc1` ?
A) 8.42

Q) COc1cc2c(cc1OC)C(C(C)(C)C)N(C(=O)c1cccnc1NCc1ccncc1)CC2 (configuration not stated) ?
A) 2.66

Q) COc1cc2c(cc1OC)C(c1ccccc1)N(C(=O)c1cccnc1NCc1ccncc1)CC2 (configuration not stated) ?
A) 2.96

Q) COc1cc2c(cc1OC)C(Cc1cccc3ccccc13)N(C(=O)c1cccnc1NCc1ccncc1)CC2 (configuration not stated) ?
A) 2.51

Q) `COc1cc(NC(=O)c2cccnc2NCc2ccncc2)cc(OC)c1OC` ?
A) 3.51

Q) `O=C(Nc1cccc2ccccc12)c1cccnc1NCc1ccncc1` ?
A) 7.74

Q) `O=C(Nc1ccc(CCN2CCOCC2)cc1)c1cccnc1NCc1ccncc1` ?
A) 5.64

Q) `Cc1cccc(Cl)c1NC(=O)c1cnc(NC(=O)c2cccnc2NCc2ccncc2)s1` ?
A) 7.95

Q) COc1cc2c(cc1OC)C(c1ccco1)N(C(=O)c1cccnc1NCc1ccncc1)CC2 (configuration not stated) ?
A) 1.52

###

- Test system: K562/A02
- protocolDescription: Cytotoxicity against human K562/A02 cells overexpressing P-gp after 48 hrs by MTT assay
- Assay type: functional, cell-based
- conditionSummary: K562/A02, 48 h
assayEndpoint: IC50

In the examples that follow, each entry is paired with its recorded IC50.
compound	assayTarget	IC50
COc1cccc(-c2nnc(NC(=O)c3cccnc3NCc3ccncc3)s2)c1	K562/A02	> 100 µM
COc1ccc(CN(C)C(=O)c2cccnc2NCc2ccncc2)cc1OC	K562/A02	> 100 µM
O=C(NCc1ccncc1)c1cccnc1NCc1ccncc1	K562/A02	> 100 µM
O=C(Nc1ccc(CCN2CCOCC2)cc1)c1cccnc1NCc1ccncc1	K562/A02	> 100 µM
COc1ccc(NC(=O)c2cccnc2NCc2ccncc2)cc1Cl	K562/A02	> 100 µM
O=C(c1ccccc1)c1ccccc1NC(=O)c1cccnc1NCc1ccncc1	K562/A02	> 100 µM
COc1cc(NC(=O)c2cccnc2NCc2ccncc2)cc(OC)c1OC	K562/A02	> 100 µM
COc1ccc(C2c3cc(OC)c(OC)cc3CCN2C(=O)c2cccnc2NCc2ccncc2)cc1OC (stereo unspecified)	K562/A02	> 100 µM

Q) Param readout= IC50; system= K562/A02; entry= `CN1CCN(c2ccc(NC(=O)c3cccnc3NCc3ccncc3)cc2)CC1` ; returns value.
A) > 100 µM

Q) `O=C(Nc1ccc(N2CCOCC2)cc1)c1cccnc1NCc1ccncc1` ?
A) > 100 µM

Q) `Cc1cccc(Cl)c1NC(=O)c1cnc(NC(=O)c2cccnc2NCc2ccncc2)s1` ?
A) 86 µM

Q) `N#CC1(c2ccc(NC(=O)c3cccnc3NCc3ccncc3)cc2)CCCC1` ?
A) 19.8 to 20.8 µM

Q) `O=C(Nc1ccc(N2CCCCC2)cc1)c1cccnc1NCc1ccncc1` ?
A) > 100 µM

Data provenance: ChEMBL document CHEMBL4049408
